# measurement_description: chemical genetic growth profiling, strain panel (AID 1159580);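 note: tested at 20 µM; growth read once vehicle control cultures reached saturation at 30 °C; 1 = growth at the plate median or of vehicle wells; lower values mean less growth of the strain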
# test_context: S. cerevisiae deletion strains, growth OD, locus YNL183C, strain NPR1, hits give low values
Screen size: about 5,500 compounds; about 2,000 (36%) were called active. Not shown: some 18% with an inconclusive outcome. Some of the results follow.
For each record, write down the corresponding normalized growth.
Answers are plain numbers.

Check out these entries, answers already filled in.
| compound | quantity_name | recorded_number |
| --- | --- | --- |
| Cc1ccc(/C(=C\CN2CCCC2)c2ccccn2)cc1 | normalized growth | 0.952 |
| OC[C@@H]1CCCN2CCCC[C@H]12 | normalized growth | 0.964 |
| O=[N+]([O-])/C=C/c1ccc(F)cc1 | normalized growth | 0.124 |
| C=CCOc1ccc(/C=C/[N+](=O)[O-])cc1 | normalized growth | 0.127 |
| CCCC1O[C@@H]2CC3C4CCC5=CC(=O)C=CC5(C)C4[C@@H](O)CC3(C)[C@]2(C(=O)CO)O1 (stereo not given in full) | normalized growth | 0.962 |

Provide the reported normalized growth of each entry below, same order.
1. CC(C)=CCC/C(C)=C/CC/C(C)=C/CC/C(C)=C/CO
2. CC[N+](CC)(CC(=O)Nc1c(C)cccc1C)Cc1ccccc1
3. FC(F)(F)c1cccc(NC(=S)Nc2ccccc2)c1
4. N#CC(C#N)=C/C=C(/Sc1nc2ccccc2s1)c1ccc(Br)cc1
5. OC[C@@H](O)[C@@H](O[C@@H]1O[C@H](CO)[C@@H](O)[C@H](O)[C@H]1O)[C@H](O)[C@@H](O)CO
6. FC(F)(F)c1cccc(NNC(=S)Nc2ccccc2)c1
7. CC(=O)O[C@@H]1CC2C(C)(C)C(=O)CC[C@]2(C)C2CC[C@]3(C)C(=CC(=O)O[C@H]3c3ccoc3)[C@@]21C (stereo not given in full)

Output:
1. 0.932
2. 0.851
3. 1
4. 0.153
5. 0.982
6. 0.874
7. 0.989

Provide the reported normalized growth of each entry below, same order.
1. CCN(CC)CCOc1ccc(/C(=C(\Cl)c2ccccc2)c2ccccc2)cc1
2. Fc1cccc(F)c1NC(=S)Nc1cc(C(F)(F)F)cc(C(F)(F)F)c1
3. CN1C(CC(=O)c2ccccc2)CCCC1CC(O)c1ccccc1 (stereo not given)
4. O=C(NCc1ccncc1)c1ccc(-n2cccn2)cc1

Output:
1. 0.92
2. 0.98
3. 0.924
4. 1.02

Provide the reported normalized growth of each entry below, same order.
1. CC(C)(C)NCC(O)c1ccccc1Cl (stereo not given)
2. Oc1c(I)cc(I)c2cccnc12
3. O=C(NC(=S)Nc1cccc(C(F)(F)F)c1)c1ccc2nonc2c1
4. CC(C)NCC(O)c1ccc2ccccc2c1 (stereo not given)
5. COc1cc(C(=O)NCc2ccc(OCCN(C)C)cc2)cc(OC)c1OC
6. CC(=O)c1c(O)c(C)c(O)c2c1OC1=CC(=O)C(C(C)=O)C(=O)C12C (stereo not given)
7. CCCCCCCCCCCCCCCC(=O)OCC(O)[C@H]1OC(=O)C(O)=C1O (stereo not given in full)

Output:
[0.939, 0.103, 0.852, 0.968, 0.937, 0.693, 0.703]

Provide the reported normalized growth of each entry below, same order.
1. O=[N+]([O-])/C=C/c1ccsc1
2. CC(C)(CO)C(O)C(=O)NCCC(=O)NCCSSCCNC(=O)CCNC(=O)C(O)C(C)(C)CO (stereo not given)

Output:
1: 0.113; 2: 0.89

Value source: PubChem BioAssay AID1159580
